- TARGET OF ASSAY: Keap1/Nrf2 (Homo sapiens)
- Sequence (Q16236 whole entry, the tested form may be a part): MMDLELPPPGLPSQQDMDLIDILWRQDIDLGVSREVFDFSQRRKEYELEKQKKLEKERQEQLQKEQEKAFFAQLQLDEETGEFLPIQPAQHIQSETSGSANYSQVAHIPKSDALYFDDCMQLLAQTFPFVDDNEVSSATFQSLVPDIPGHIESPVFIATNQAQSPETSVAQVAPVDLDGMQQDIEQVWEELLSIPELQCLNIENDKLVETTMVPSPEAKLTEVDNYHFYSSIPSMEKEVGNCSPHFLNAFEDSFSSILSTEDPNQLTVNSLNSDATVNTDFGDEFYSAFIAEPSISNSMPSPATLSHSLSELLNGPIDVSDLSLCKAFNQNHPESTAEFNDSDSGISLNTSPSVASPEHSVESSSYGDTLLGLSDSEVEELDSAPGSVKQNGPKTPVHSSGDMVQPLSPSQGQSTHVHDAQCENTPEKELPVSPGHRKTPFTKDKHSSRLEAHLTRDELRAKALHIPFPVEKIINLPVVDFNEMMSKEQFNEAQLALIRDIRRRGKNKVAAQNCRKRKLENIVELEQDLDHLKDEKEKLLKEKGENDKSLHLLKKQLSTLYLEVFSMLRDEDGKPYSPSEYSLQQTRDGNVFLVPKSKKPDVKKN
- Sequence (Q14145 whole entry, the tested form may be a part): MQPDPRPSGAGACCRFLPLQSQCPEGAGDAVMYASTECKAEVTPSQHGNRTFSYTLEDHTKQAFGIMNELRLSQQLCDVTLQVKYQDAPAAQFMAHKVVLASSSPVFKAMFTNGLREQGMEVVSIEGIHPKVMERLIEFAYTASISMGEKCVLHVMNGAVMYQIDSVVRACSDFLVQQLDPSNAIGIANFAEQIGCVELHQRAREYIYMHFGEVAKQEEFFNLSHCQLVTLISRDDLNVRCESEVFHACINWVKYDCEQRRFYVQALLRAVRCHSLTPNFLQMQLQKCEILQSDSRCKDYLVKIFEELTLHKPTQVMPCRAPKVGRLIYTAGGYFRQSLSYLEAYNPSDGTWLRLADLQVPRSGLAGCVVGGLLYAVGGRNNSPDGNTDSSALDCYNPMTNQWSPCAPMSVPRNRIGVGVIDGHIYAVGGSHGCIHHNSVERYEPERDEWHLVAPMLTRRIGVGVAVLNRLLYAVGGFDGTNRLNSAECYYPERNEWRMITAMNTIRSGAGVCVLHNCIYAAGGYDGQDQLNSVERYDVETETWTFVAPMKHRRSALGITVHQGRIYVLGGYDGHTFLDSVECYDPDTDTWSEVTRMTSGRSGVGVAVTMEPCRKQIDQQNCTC
- EXPERIMENT NOTES: Inhibition of His-tagged human Keap1 Kelch domain /FITC-labelled-9mer Nrf2 (unknown origin) protein-protein interaction incubated for 1 hr by fluorescence polarization assay
For each of the compounds below, state its log10 IC50.
Scale: log10; quantity: IC50; unit before log: nM

Task: Give the measured log10 IC50 of COc1cccnc1Cc1ccc(CC(=O)N[C@H](c2ccc(C)cc2)[C@@H](C)C(=O)O)cc1.Cl .
Result: 2.00

Task: Give the measured log10 IC50 of Cc1ccc(CC(=O)N[C@H](c2ccc(C)c(OCC3CCCC3)c2)[C@@H](C)C(=O)O)cc1 .
Result: 3.70

Task: Give the measured log10 IC50 of Cc1ccc([C@@H](NC(=O)[C@@H](F)c2ccc3c(c2)CCCC3)[C@@H](C)C(=O)O)cc1 .
Result: 2.41

Task: Give the measured log10 IC50 of Cc1ccc([C@@H](NC(=O)Cc2ccc(Cc3ncccc3C)cc2)[C@@H](C)C(=O)O)cc1.Cl .
Result: 2.15

Task: Give the measured log10 IC50 of Cc1ccc([C@@H](NC(=O)Cc2ccc(CC3CCCCC3)cc2)[C@@H](C)C(=O)O)cc1 .
Result: 3.92

Task: Give the measured log10 IC50 of Cc1ccc(CC(=O)N[C@H](c2ccc(C)c(OCC(C)(C)F)c2)[C@@H](C)C(=O)O)cc1 .
Result: 2.43

Task: Give the measured log10 IC50 of Cc1ccc([C@@H](NC(=O)Cc2ccc(Cc3ccc(C)cn3)cc2)[C@@H](C)C(=O)O)cc1.Cl .
Result: 2.30

Task: Give the measured log10 IC50 of Cc1ccc(CC(=O)N[C@H](c2ccc(C)cc2)[C@@H](C)C(=O)O)cc1 .
Result: 4.30

Task: Give the measured log10 IC50 of Cc1ccc([C@@H](NC(=O)Cc2ccc(Cl)cc2)[C@@H](C)C(=O)O)cc1OCC(C)(C)C#N .
Result: 1.96

Task: Give the measured log10 IC50 of Cc1ccc(CC(=O)N[C@H](c2ccc(C)c(OCC(C)(C)C#N)c2)[C@@H](C)C(=O)O)cc1 .
Result: 1.89

Task: Give the measured log10 IC50 of CCOc1cccnc1Cc1ccc(CC(=O)N[C@H](c2ccc(C)cc2)[C@@H](C)C(=O)O)cc1 .
Result: 1.65

Task: Give the measured log10 IC50 of Cc1ccc([C@@H](NC(=O)Cc2ccc(Cc3cc(C)ccn3)cc2)[C@@H](C)C(=O)O)cc1.Cl .
Result: 2.34

Task: Give the measured log10 IC50 of Cc1ccc([C@@H](NC(=O)Cc2ccc(Cn3ccccc3=O)cc2)[C@@H](C)C(=O)O)cc1 .
Result: 2.96

Task: Give the measured log10 IC50 of Cc1ccc(CC(=O)N[C@H](c2ccc(C)c(OCc3ccccc3)c2)[C@@H](C)C(=O)O)cc1 .
Result: 4.11

Task: Give the measured log10 IC50 of Cc1ccc(CC(=O)N[C@H](c2ccc(C)c(OCC(C)C)c2)[C@@H](C)C(=O)O)cc1 .
Result: 3.56

Task: Give the measured log10 IC50 of Cc1ccc([C@@H](NC(=O)Cc2ccc(Cn3cccn3)cc2)[C@@H](C)C(=O)O)cc1 .
Result: 2.81

Task: Give the measured log10 IC50 of Cc1ccc([C@@H](NC(=O)Cc2ccc(CC3CC3)cc2)[C@@H](C)C(=O)O)cc1 .
Result: 4.18

Task: Give the measured log10 IC50 of Cc1ccc([C@@H](NC(=O)Cc2ccc(Cc3ccccc3)cc2)[C@@H](C)C(=O)O)cc1 .
Result: 3.30

Task: Give the measured log10 IC50 of Cc1ccc([C@@H](NC(=O)Cc2ccc(Cc3ccccn3)cc2)[C@@H](C)C(=O)O)cc1.Cl .
Result: 2.56

Task: Give the measured log10 IC50 of Cc1ccc(CC(=O)N[C@H](c2ccc(C)c(OCC3(C#N)CC3)c2)[C@@H](C)C(=O)O)cc1 .
Result: 1.70

Task: Give the measured log10 IC50 of Cc1ccc(CC(=O)N[C@H](c2ccc(C)c(OCC(C)(C)O)c2)[C@@H](C)C(=O)O)cc1 .
Result: 3.62

Task: Give the measured log10 IC50 of CCCOc1cc([C@@H](NC(=O)Cc2ccc(C)cc2)[C@@H](C)C(=O)O)ccc1C .
Result: 3.98

Task: Give the measured log10 IC50 of Cc1ccc(CC(=O)N[C@H](c2ccc(C)c(OCC3CCCCC3)c2)[C@@H](C)C(=O)O)cc1 .
Result: 4.00

Task: Give the measured log10 IC50 of Cc1ccc([C@@H](NC(=O)Cc2ccc(Cc3cccc(C)n3)cc2)[C@@H](C)C(=O)O)cc1.Cl .
Result: 2.23
